From: PubChem BioAssay AID1159580

Assay Info: chemical genetic growth profiling, strain panel (AID 1159580);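 also: tested at 20 µM; growth read once vehicle control cultures reached saturation at 30 °C; 1 = growth at the plate median or of vehicle wells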
Measurement Setup: S. cerevisiae deletion strains, growth OD, locus YHR087W, strain rtc3
Among all 5,500 compounds or so, about 2,000 (36%) were called active. About 18% were inconclusive and are not listed. Rule as the data show it: active = normalized growth mostly below about 0.91 (no sharp cut-off); inconclusive = no clear call, values can overlap the other calls; inactive = mostly above about 0.92. Some of the results follow.
Valid outcomes are listed here; reply with one: 1 for active, -1 for inactive

Below are worked cases with known answers.
Molecule	Label Value
COC(=O)c1ccccc1CSc1nccc(C(F)(F)F)n1	-1
O=C(COC(=O)c1ccccc1C(=O)c1ccccc1)c1ccccc1	-1

Data request: Returns: the outcome recorded for O=[N+]([O-])c1ccc(-c2nn[nH]n2)cc1 in this assay.
Data returned: -1

Data request: Returns: the outcome recorded for O=C(c1cccc([N+](=O)[O-])c1)c1cc2cc(Br)cc(Br)c2o1 in this assay.
Data returned: -1

Data request: Returns: the outcome recorded for OC(CSc1ccccc1)CN1CCN(c2ccc(C(F)(F)F)cn2)CC1 (stereo not given) in this assay.
Data returned: -1

---

Assay Info: chemical genetic growth profiling, strain panel (AID 1159580);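 also: tested at 20 µM; growth read once vehicle control cultures reached saturation at 30 °C; 1 = growth at the plate median or of vehicle wells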
Measurement Setup: S. cerevisiae deletion strains, growth OD, locus YLR418C, strain cdc73
The campaign covered roughly 5,500 compounds. About 2,000 (36%) were called active. Another 18% or so got no clear call; they are omitted. No stated cut-off is given here; in the data, active means normalized growth mostly below about 0.91 (no sharp cut-off); inconclusive means no clear call, values can overlap the other calls; inactive means mostly above about 0.92. The list shows a part of the results.
Valid outcomes are listed here; reply with one: label 1 (active), label 0 (inactive)

Below are worked cases with known answers.
Compound	Label Value
COc1ccc(C(=O)c2ccccc2)c(O)c1O	label 1
CC(=O)OC1CCC2(C)C3CC(=O)C4(C)C(CC5OC6(CCC(C)CO6)[C@@H](C)C54)C3CC[C@H]2C1 (stereo partly specified)	label 0
CC(=O)OCC1=C(C(=O)O)N2C(=O)[C@@H](NC(=O)CCCC(N)C(=O)O)C2SC1 (stereo partly specified)	label 0
COc1ccc(C(=O)c2ccc(O)cc2)c(O)c1O	label 0
CC(=O)O[C@H]1CC[C@]2(C)C3CC[C@@]4(C)C(CC5O[C@@]6(CCC(C)CO6)[C@@H](C)C54)C3CC[C@H]2C1 (stereo partly specified)	label 0

Data request: Returns: the outcome recorded for O=c1oc2c(O)c(O)cc3c(=O)oc4c(O)c(O)cc1c4c23 in this assay.
Data returned: label 1

Data request: Returns: the outcome recorded for CCOc1ccc(C(=O)c2ccc(O)c(O)c2O)cc1 in this assay.
Data returned: label 1

Data request: Returns: the outcome recorded for CCOc1ccc(C(=O)c2cc(O)c(OC)c(OC)c2O)cc1 in this assay.
Data returned: label 0

---

Assay Info: chemical genetic growth profiling, strain panel (AID 1159580);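 also: tested at 20 µM; growth read once vehicle control cultures reached saturation at 30 °C; 1 = growth at the plate median or of vehicle wells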
Measurement Setup: S. cerevisiae deletion strains, growth OD, locus YKL068W, stronger effect = lower value
Hit rate of the full screen: of about 5,500 compounds, about 2,000 (36%) were called active. About 18% were inconclusive and are not listed. Some of the results follow.
List of normalized growth values.
Keep it simple and answer with nothing but the number.

Molecule	normalized growth
COc1cc(-c2coc3cc(O[C@@H]4O[C@H](CO)[C@@H](O)[C@H](O)[C@H]4O)c(OC)c(O)c3c2=O)cc(O)c1OC	0.995
NC[C@H]1O[C@H](O[C@H]2[C@H](O)[C@@H](O[C@H]3O[C@H](CO)[C@@H](O)[C@H](N)[C@H]3O)[C@H](N)C[C@@H]2N)[C@H](N)C[C@@H]1O	0.998
CCOc1ccc(NC(C)=O)cc1	0.976
CC(=O)Oc1cc2c(c(C)c1OC(C)=O)CC1OC13C2(C)CCC1(C)C2CC(C)(C(=O)O)CCC2(C)CCC13C (centres undefined)	1.03
COc1cc(/C=C/C=O)cc(OC)c1OC	0.994

Data request: Return reported normalized growth; argument: C1CCC(C(CC2CCCCN2)C2CCCCC2)CC1 (centres undefined)
Data returned: 1.01

Data request: Return reported normalized growth; argument: COc1cc(NS(=O)(=O)c2ccc(N)cc2)ncn1
Data returned: 0.986

Data request: Return reported normalized growth; argument: CN[C@@H]1[C@@H](O[C@H]2O[C@H](CO)[C@@H](N)[C@H](O)[C@H]2O)O[C@H]2C[C@@H](N)[C@H](O[C@H]3[C@H](O)[C@@H](O)[C@H](N)C[C@@H]3N)O[C@@H]2[C@@H]1O
Data returned: 1.01

Data request: Return reported normalized growth; argument: CCOC([O-])=Nc1c[n+](N2CCOCC2)no1
Data returned: 0.993

Data request: Return reported normalized growth; argument: NC[C@H]1O[C@H](O[C@H]2C(O[C@@H]3O[C@H](CO)[C@@H](O)[C@H]3O)[C@@H](O)[C@H](N)C[C@@H]2N)[C@H](N)[C@@H](O)[C@@H]1O (some centres undefined)
Data returned: 0.99
